Assay: protease stability score; higher = more stable; yeast display proteolysis, trypsin and chymotrypsin;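 note: relative to predicted unfolded state with 0 unfolded-like and 1 meaning tenfold more protease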
The following sequences are listed with their measured protease stability score values.

These solved cases illustrate the format of a correct answer.
- Seq Text: "KEHEEILHHLAELFFENLLTGDWRLLTELMDPSARVHIGEWRSHGREHASRVMLEEFRQLRVRDVKLTDLKVIDGRMEIDTRMRIEVDGREHIHTIHIRIYIYNGRMDEIHLEVR"
  Measure Name: "protease stability score"
  Measured Value: 0.125
- Seq Text: "KEDEELSSRFMLLMWHLMVTGNWKILEELADPNVRFIDEHHTLHGREEFVRTFKDWFDEIKNMKIHVRDSTVQGEKSNIHGELNFNGKRVDYTFIILFFNGRLHQIELRYH"
  Measure Name: "protease stability score"
  Measured Value: -0.069
- Seq Text: "TEEEELSRKAAEILDEAQQTGDEDSIRELVDPNVKYEINGRIFVGWQEMLHAFRLELRHIRLREVHIKREKRIGNWMFIDSSMDGEVNGVRTERKSELVFLKFDGQWSLHSMRIE"
  Measure Name: "protease stability score"
  Measured Value: 1.56
- Seq Text: "DEEDRDAEFFMRLWMRLHKTGDEDQLRELLDPDVRVRFENREFHGREELIKFIHRHRREARTDVKIRDFRVQGDKVIVHGELILQFDGVRFNHDLILITRKIDGRWRIEEIEVR"
  Measure Name: "protease stability score"
  Measured Value: 1.84
- Seq Text: "SELKNWARIIAERVTDELNTGNEHRLRELFDPNVKIRIDGRDFHGMDTLRRFFEELRITHTHWEHKDMHLIGDKALLHGTLKINILQGDKTHETTFDVRIFVIKVNGRWSYEHMEID"
  Measure Name: "protease stability score"
  Measured Value: 1.22

Could you now look at the following sequence, please?
Which protease stability score is listed for `SEEEEETRKFAHDLVNIHRTGDERKINDLFDPHVRVHIGNKEIVGRELFARWMHEFLLKHGFTEEIRIDDVDLYGNKAHIDGTLIIRINGVEHRHRVELIVNKINGKWLMEYVRVR` ?
1.6
